Quick reference for LD50 among some compounds
Assay Remarks: Acute toxicity (LD50) in the mouse
Experimental Conditions: in vivo, oral

| Compound | LD50 |
| --- | --- |
| CC(Cc1cn(-c2ccc(F)cc2)c2ccccc12)N1CCCC1.Cl (centres unmarked) | ~400 mg/kg |
| CC(Cc1cn(-c2ccc(F)cc2)c2ccc(Cl)cc12)N1CCCC1 (centres unmarked) | > 800 mg/kg |

---

System: central nervous system
Assay Remarks: animal or person
Assay type: in vivo
Experimental Conditions: Mus musculus, ip, read-out: Spontaneous pattern of activity (table head: LD50 in mg/kg)
Reported Metric: ED50 (mg/kg)

| Molecule | Reported Metric | Reading |
| --- | --- | --- |
| COc1ccc2c(c1)c(CC(C)N1CCCC1)cn2-c1ccccc1 (centres unmarked) | ED50 | 10 |
| CNC(C)Cc1cn(-c2ccccn2)c2ccccc12 (centres unmarked) | ED50 | 25 |
| CC(Cc1cn(-c2ccccc2Cl)c2ccccc12)N(C)C (centres unmarked) | ED50 | 6 |
| CNC(C)Cc1cn(-c2ccccc2Cl)c2ccccc12 (centres unmarked) | ED50 | 5 |
| CC(Cc1cn(-c2cccnc2)c2ccccc12)N(C)C (centres unmarked) | ED50 | 10 |

---

Test system: central nervous system
Assay Remarks: animal or person
Type: in vivo
Experimental Conditions: Mus musculus, ip, read-out: Spontaneous pattern of activity (table head: LD50 in mg/kg)
Quick reference for ED50 among some compounds

| Compound | ED50 [mg/kg] |
| --- | --- |
| CC(Cc1cn(-c2ccc(Cl)cc2)c2ccccc12)N(C)C (stereo not shown) | 5 |
| CC(Cc1cn(-c2ccc(F)cc2)c2ccc(F)cc12)N1CCCC1 (stereo not shown) | 0.8 |
| CC(Cc1cn(-c2ccccn2)c2ccccc12)N1CCCC1 (stereo not shown) | 12.5 |
| CC(Cc1cn(-c2ccc(F)cc2)c2ccccc12)N1CCCC1.Cl (stereo not shown) | 0.4 |
| CC(Cc1cn(-c2ccc(F)cc2)c2ccccc12)N(C)C (stereo not shown) | 2 |
| CC(Cc1cn(-c2ccc(F)cc2)c2ccc(F)cc12)N(C)C (stereo not shown) | 6.25 |
| CNC(C)Cc1cn(-c2ccc(OC)cc2)c2ccccc12 (stereo not shown) | 25 |
| CC(Cc1cn(-c2ccc(F)cc2)c2ccc(Cl)cc12)N1CCCC1 (stereo not shown) | 0.4 |
| CC(Cc1cn(-c2ccc(F)cc2)c2ccc(Cl)cc12)N(C)C (stereo not shown) | 6.25 |
| CC(N)Cc1cn(-c2ccc(F)cc2)c2ccccc12 (stereo not shown) | 80 |
| CNC(C)Cc1cn(-c2ccccc2)c2ccccc12 (stereo not shown) | 2.5 |
| CC(Cc1cn(-c2ccc(Cl)cc2)c2ccc(F)cc12)N(C)C (stereo not shown) | 20 |
| COc1ccc(-n2cc(CC(C)N3CCCCC3)c3ccccc32)cc1 (stereo not shown) | 5 |
| COc1ccc2c(c1)c(CC(C)N1CCCC1)cn2-c1ccc(F)cc1 (stereo not shown) | 3.12 |
| COc1ccc(-n2cc(CC(C)NC(C)C)c3ccccc32)cc1 (stereo not shown) | 12.5 |
| CC(Cc1cn(-c2ccccn2)c2ccccc12)N(C)C (stereo not shown) | 50 |
| CNC(C)Cc1cn(-c2ccc(N)cc2)c2ccccc12 (stereo not shown) | 2.5 |
| COc1ccc(-n2cc(CC(C)N(C)C)c3ccccc32)cc1 (stereo not shown) | 1.25 |
| CC(Cc1cn(-c2ccccc2)c2ccccc12)N(C)C (stereo not shown) | 5 |

---

Test system: central nervous system
Assay Remarks: animal or person
Assay type: in vivo
Experimental Conditions: Mus musculus, ip, read-out: Spontaneous pattern of activity (table head: LD50 in mg/kg)
Reported Metric: ED50 (mg/kg)

| Compound | Reading |
| --- | --- |
| CC(Cc1cn(-c2ccccc2)c2ccccc12)N1CCOCC1 (centres unmarked) | 2.5 |
| CNC(C)Cc1cn(-c2ccc(F)cc2)c2ccccc12 (centres unmarked) | 2 |
| CC(Cc1cn(-c2ccc(Cl)cc2)c2ccc(F)cc12)N1CCCC1 (centres unmarked) | 9 |
| CC(Cc1cn(-c2ccccc2Cl)c2ccccc12)N1CCCC1 (centres unmarked) | 0.25 |
| CC(Cc1cn(-c2ccccc2)c2ccccc12)N1CCCC1 (centres unmarked) | 2.5 |

---

Quick reference for ED50 among some compounds
System: central nervous system
Assay Remarks: animal or person
Assay type: in vivo
Experimental Conditions: Mus musculus, ip, read-out: Spontaneous pattern of activity (table head: LD50 in mg/kg)

| Compound | ED50 |
| --- | --- |
| COc1ccc(-n2cc(CC(C)N3CCCC3)c3ccccc32)cc1 (stereo not drawn) | 1 mg/kg |
| CNC(C)Cc1cn(-c2ccc(Cl)cc2)c2ccccc12 (stereo not drawn) | 5 mg/kg |
| COc1ccc2c(c1)c(CC(C)N(C)C)cn2-c1ccccc1 (stereo not drawn) | 12.5 mg/kg |
| CC(Cc1cn(-c2ccccc2)c2ccc(F)cc12)N1CCCC1 (stereo not drawn) | 0.25 mg/kg |
| CC(Cc1cn(-c2ccccc2)c2ccc(F)cc12)N(C)C (stereo not drawn) | 20 mg/kg |
| CNC(C)Cc1cn(-c2ccccc2F)c2ccccc12 (stereo not drawn) | 12.5 mg/kg |
| CC(Cc1cn(-c2ccccc2)c2ccccc12)N1CCCCC1 (stereo not drawn) | 12.5 mg/kg |
| COc1ccc(-n2cc(CC(C)N3CCOCC3)c3ccccc32)cc1 (stereo not drawn) | 25 mg/kg |
| CC(Cc1cn(-c2ccccc2F)c2ccccc12)N1CCCC1 (stereo not drawn) | 5 mg/kg |
